Tested system: Voltage-gated inwardly rectifying potassium channel KCNH2 (Homo sapiens)
Protocol summary: Human Ether-a-go-go-Related Gene (hERG) channel small molecule antagonists: fluorescence cell-based qHTS assay (AID 1671200); further: nearly all actives have a fitted effect of over 50% in size
Test parameters: hERG-U2OS cells, FluxOR thallium flux fluorescence; series mostly up to 76.8 µM
Records with an inconclusive call do not appear. Calls of active or inactive are those of the source. The call rests on the fitted dose curve; in most records, active means well fitted inhibition curve with a large enough effect in the repeat runs; inconclusive means weak or mixed curves; inactive means flat fitted curve, though single readings scatter.
Valid outcomes are listed here; reply with one: active, inactive

Below are worked cases with known answers.
What is the recorded call for this molecule in the test? `CC(=O)O[C@]1(C(C)=O)CC[C@H]2[C@@H]3C[C@H](C)C4=CC(=O)CC[C@]4(C)[C@H]3CC[C@@]21C`
inactive

Now try `C=CS(=O)(=O)O` .
inactive

What about `NC12CC3CC(CC(C3)C1)C2` ?
inactive

`O=C(O[C@@H]1Cc2c(O)cc(O)cc2O[C@@H]1c1cc(O)c(O)c(O)c1)c1cc(O)c(O)c(O)c1` , same question.
inactive

Let us now turn to `CCc1cc(C(C)(C)C)c(O)c(C(C)(C)C)c1`
inactive

Others:
Fill in: this test's call for `Nc1cc(Cl)c(-c2cc(Cl)c(N)cc2Cl)cc1Cl` is ___
inactive

And for `CC(C)C(=O)c1c(C(C)C)nn2ccccc12` ?
inactive

And `O=C(OCc1ccccc1)c1ccc(O)cc1` ?
inactive

Cool, now `CC(=O)C1=C(C)[C@@H]2C[C@@]3(C1)[C@H](C)CC[C@H]3C2(C)C`
active

Thanks! And `Cc1c(O)cccc1C(=O)N[C@@H](CSc1ccccc1)[C@H](O)CN1C[C@H]2CCCC[C@H]2C[C@H]1C(=O)NC(C)(C)C` ?
inactive

Hey, just so you know, these numbers are from PubChem BioAssay (Tox21).
